# Tested on: NCI-H226 lung
# assay.notes: NCI tumour cell line growth inhibition, 48 h
Recorded TGI by entry
assay.readout: TGI (µM)

1) CCN(CC)c1c(-c2ccccc2)n[nH]c1C(=O)OC    38.5
2) C[C@]12Cc3cnc(-c4ccccc4)nc3C[C@@H]1CC[C@@H]1[C@@H]2CC[C@@]2(C)[C@H]1CC[C@]2(C)O    58.1

###

# System: EKVX NSCLC
# assay.notes: NCI tumour cell line growth inhibition, 48 h; in the data active means GI50 below about 0.43 µM; inactive means the rest
Labels: active, inactive

1. CC(C)(C)c1cc(C(=O)Nc2ccc(C(=O)NCCN)cc2)cc(C(C)(C)C)c1    inactive
2. O=C1Nc2cc(-c3cccc(O)c3)ccc2/C1=C/c1ccc[nH]1    active
3. O=C1CC[C@H](N2Cc3c(OCc4ccc(CN5CCOCC5)cc4)cccc3C2=O)C(=O)N1    inactive
4. CCCCCCCCCC[C@@H](O)[C@@H]1CC[C@@H]([C@@H]2CC[C@@H]([C@@H](O)CCCCCCCCCC[C@H](O)CC3=CC(C)OC3=O)O2)O1 (stereo not given in full)    inactive
5. COc1cc(-n2cc(-c3ccccc3)[nH]c2=O)cc(OC)c1OC    inactive
